Assay: first-order primary biodegradation rate constant k (sorption-corrected, fDis-corrected) (d-1); higher = faster biodegradation
Conditions: river segment: Spain (ES) L_Contam; incubation temperature 24 °C
We use 0.1 as the dividing line for first-order primary biodegradation rate constant k: on or above the line is met, below is not met.

Sample answers from the record:
>>> class_assignment("C=CCOc1ccccc1OCC(O)CNC(C)C (stereo not given)")
"met"
>>> class_assignment("COc1cccc(C2(O)CCCCC2CN(C)C)c1 (stereo not given)")
"not met"
>>> class_assignment("CC(C)NCC(O)c1ccc(NS(C)(=O)=O)cc1 (stereo not given)")
"met"
>>> class_assignment("COc1ccc2cc([C@H](C)C(=O)O)ccc2c1")
"met"
>>> class_assignment("Cc1ccc(S(=O)(=O)O)cc1")
"met"
>>> class_assignment("O=C(NCC1CCCCN1)c1cc(OCC(F)(F)F)ccc1OCC(F)(F)F (stereo not given) [Flecainide]")
"not met"

Req: Item CC(C)N(C(=O)CCl)c1ccccc1 with first-order primary biodegradation rate constant k of 0.1 or above?
Resp: met

Req: Item CC(C)c1ccc(NC(=O)N(C)C)cc1 with first-order primary biodegradation rate constant k of 0.1 or above?
Resp: not met

Req: Item CNC(=C[N+](=O)[O-])NCCSCc1ccc(CN(C)C)o1 with first-order primary biodegradation rate constant k of 0.1 or above?
Resp: met

Req: Item COc1ccc(NS(=O)(=O)c2ccc(N)cc2)nn1 with first-order primary biodegradation rate constant k of 0.1 or above?
Resp: met

---

Assay: first-order primary biodegradation rate constant k (sorption-corrected, fDis-corrected) (d-1); higher = faster biodegradation
Details: river segment: Switzerland (CH) U_Pris; incubation temperature 17 °C
We use 0.08 as the dividing line for first-order primary biodegradation rate constant k: on or above the line is YES, below is NO.

Sample answers from the record:
>>> class_assignment("CC1(C)C[C@@H]1C(=O)N/C(=C\\CCCCSC[C@H](N)C(=O)O)C(=O)O")
"YES"
>>> class_assignment("CNCCC(Oc1ccc(C(F)(F)F)cc1)c1ccccc1 (configuration not stated)")
"YES"
>>> class_assignment("Cc1ccc(C(C)NC(=O)[C@@H](NC(=O)OC(C)C)C(C)C)cc1 (some centres not stated)")
"YES"
>>> class_assignment("CC(C)(Oc1ccc(Cl)cc1)C(=O)O")
"NO"
>>> class_assignment("CCOC(=O)C1CC(=O)C(=C(O)C2CC2)C(=O)C1 (configuration not stated)")
"YES"

Req: Item O=C1Nc2ccc(Cl)cc2C(c2ccccc2)=NC1O (configuration not stated) with first-order primary biodegradation rate constant k of 0.08 or above?
Resp: NO

Req: Item Nc1nc(NC2CC2)c2ncn([C@H]3C=C[C@@H](CO)C3)c2n1 with first-order primary biodegradation rate constant k of 0.08 or above?
Resp: YES

Req: Item CC(C)c1ccc(NC(=O)N(C)C)cc1 with first-order primary biodegradation rate constant k of 0.08 or above?
Resp: NO

Req: Item CCNc1nc(Cl)nc(NC(C)C)n1 with first-order primary biodegradation rate constant k of 0.08 or above?
Resp: NO

---

Assay: first-order primary biodegradation rate constant k (sorption-corrected, fDis-corrected) (d-1); higher = faster biodegradation
Conditions: river segment: Greece (EL) G_Contam; incubation temperature 19 °C
MEASURED PROPERTY: first-order primary biodegradation rate constant k
# answer = number (no unit)

// below: answered compounds
>>> reported("COc1ccc2cc([C@H](C)C(=O)O)ccc2c1")
0.0195
>>> reported("CCCCC(CC)COCC(O)CO (stereo unspecified)")
1.93
>>> reported("C/C(=N\\C#N)N(C)Cc1ccc(Cl)nc1")
0.0201
>>> reported("CC(=O)NC[C@H]1CN(c2ccc(N3CCOCC3)c(F)c2)C(=O)O1")
0.00542
>>> reported("CCCCCCCCCCCCN")
7.74
>>> reported("Nc1nnc(-c2cccc(Cl)c2Cl)c(N)n1")
0.337
>>> reported("C=CCOc1ccccc1OCC(O)CNC(C)C (stereo unspecified)")
0.0189
>>> reported("COCCc1ccc(OCC(O)CNC(C)C)cc1 (stereo unspecified)")
0.171
>>> reported("Cc1cc(O)cc(C)c1Cl")
0.169
>>> reported("CO[C@@H]1[C@@H](OC(N)=O)[C@@H](O)[C@H](Oc2ccc3c(O)c(NC(=O)c4ccc(O)c(CC=C(C)C)c4)c(=O)oc3c2C)OC1(C)C")
0.108

The record that follows has no first-order primary biodegradation rate constant k shown yet.
Req: Item under review: COc1ccc(C(CN(C)C)C2(O)CCCCC2)cc1 (stereo unspecified) . Reported first-order primary biodegradation rate constant k?
Resp: 0.204
